System: MCF7 breast
PROTOCOL_DETAILS: NCI-60 one-dose screen, 48 h (100 = growth as untreated, 0 = no growth, -100 = all killed)
MEASUREMENT_CONDITIONS: 10 µM unless noted
The panel holds about 83,000 compounds, 20% with a hit somewhere; the sample as a whole holds those more often.
Parameter growth: see the listing below.
METRIC_NAME: growth (%)

CCOC(=O)Nc1ccc(C(=O)/C=C/c2ccccc2)cc1    0.358
COc1ccc2nc(NCCCNCCO)c3sc4ccc(F)cc4c(=O)c3c2c1    17.8
c1ccc2cc(C[n+]3ccn(CCCCCCCCCCCCn4cc[n+](Cc5ccc6ccccc6c5)c4)c3)ccc2c1    -70.5
O=C(N/N=C/c1ccc(Cl)cc1)c1ccc(C(F)(F)F)nc1Nc1cccc(C(F)(F)F)c1    0.997
CC(=O)N1N=C(c2ccc(Nc3nc(Nc4ccc(F)cc4)nc(Nc4ccc(Cl)cc4)n3)cc2)CC1c1ccc(Cl)cc1 (stereo not given)    91

---

Test system: SN12C renal
PROTOCOL_DETAILS: NCI-60 one-dose screen, 48 h
MEASUREMENT_CONDITIONS: 10 µM unless noted
About 83,000 compounds went through this panel and 20% of them were active in at least one assay; those are over-represented in the sample as a whole. The source made the active and inactive calls. The calls were made as follows: active = growth percent below 10; inactive = the rest.
Possible outcomes: active, inactive

CCN1C(=O)N(CC)C2Nn3c(s/c(=C4\C(=O)N(CC(C)C)c5ccccc54)c3=O)=NC21 (stereo not drawn)    inactive
CCCC1CCC(O)(C(C)(O)C(=O)NC2C(=O)N3NCCCC3C(=O)N(O)C(C)C(=O)N3NCCCC3C(=O)N3NCC(O)CC3C(=O)NC(C)C(=O)OC2C(C)C)OC1CC (stereo not drawn)    active
Cc1ccc(-c2nc(N3CCN(CC(=O)Nc4ccc(Cl)cc4)CC3)c3ccccc3n2)cc1    inactive
COc1ccc2nc(NC(=O)c3cccnc3Nc3ccc(S(N)(=O)=O)cc3)sc2c1    inactive
COc1ccc(CNC(=O)C(=O)[C@H](Cc2ccccc2)NC(=O)c2[nH]c3ccccc3c(=O)c2C)cc1    inactive
CCN(CC)CCNc1nc2ccccc2c2c(=O)c3cc(Cl)ccc3sc12    inactive
C#C[C@]1(O)CC[C@H]2[C@@H]3CC=C4c5sc(Nc6ccccc6)nc5CC[C@]4(C)[C@H]3CC[C@@]21C    inactive
Cc1ccc(-c2nc(N3CCN(CC(=O)Nc4ccc(Cl)c(C(F)(F)F)c4)CC3)c3ccccc3n2)cc1    inactive

---

System: SF-539 CNS
PROTOCOL_DETAILS: NCI-60 one-dose screen, 48 h (100 = growth as untreated, 0 = no growth, -100 = all killed)
MEASUREMENT_CONDITIONS: 10 µM unless noted
About 83,000 compounds went through this panel and 20% of them were active in at least one assay; those are over-represented in the sample as a whole.
Give Condition met when the value for growth is at least 90%. Give Condition not met when it is less.

CN(C)CCN1CCN(c2ncccc2C2Nc3ccccc3-n3cccc32)CC1 (stereo unspecified)    Condition met
Cc1cc(C)c(-c2c(N)cc(Br)cc2Br)c(N)c1    Condition not met
Cc1cc2nc3cc(C)c(N)cc3[n+](-c3ccccc3)c2cc1N    Condition not met
COC(=O)[C@H](C)NC(=O)NC(=O)NC(=O)CI    Condition met
O=C(CCOCCNC(=O)COc1ccc2c(c1)OCC(c1ccc(F)cc1)C2=O)NCCCC(O)(P(=O)(O)O)P(=O)(O)O (stereo unspecified)    Condition met
CCCCn1c(-c2ccc(C(=O)O/N=C(\N)c3ccc(OC)cc3)cc2)nc(-c2ccccc2)c1-c1ccccc1    Condition not met
O=S(=O)(NCCCNc1cc(-c2c(-c3cccc(O)c3)nc3sccn23)ccn1)c1cccc2ccccc12    Condition not met
OC(COc1ccccc1Cl)CN1CCN(c2cccc(Cl)c2)CC1 (stereo unspecified)    Condition met
CN1CCN(Cc2ccc(NC(=O)c3cncc(C#Cc4cnccc4C#N)c3)cc2C(F)(F)F)CC1    Condition not met
CC([C@H]1CCC2C3CCC4C[C@@H](NC=O)CC[C@]4(C)C3CC[C@@]21C)N(C)C (stereo partly specified)    Condition not met
COc1cc(CCC[P+](c2ccccc2)(c2ccccc2)c2ccccc2)c(OC)c2c1OCO2    Condition not met
Cc1ccc(C(C)C)cc1C(=O)C[n+]1ccccc1    Condition met
c1ccc2c(c1)Nc1ccncc1S2    Condition not met
C=CCc1cc(C)ccc1NC(C(=O)NCC(=O)OC)c1ccccc1 (stereo unspecified)    Condition met
Cc1nn(-c2ccccc2)c(-n2ccnc2)c1/C=N/Nc1nc(-c2ccc(Cl)c(Cl)c2)cs1    Condition not met
COc1cc(Nc2nc(NCCN)nc3cc[nH]c(=O)c23)cc(OC)c1    Condition not met
Cc1nc2ccccc2n1CC1C(=O)NC(=O)NC1=O    Condition met
O=C(Cc1ccc(F)c(Cl)c1)Nc1cc(C2(C(F)(F)F)CC2)nn1Cc1ccccc1    Condition not met
COC1=C(C)C(=O)c2c(c(CCCl)c3n2CCC3OC(C)=O)C1=O (stereo unspecified)    Condition not met
Oc1ccc(C#CCOc2ccccc2)cc1CNCCN(Cc1ccccn1)Cc1ccccn1    Condition not met
